system: Trichophyton mentagrophytes; experiment: Fungicidal activity against Trichophyton mentagrophytes clinical isolate after 48 hrs by broth dilution method; assay type: functional
Property measured: log10 of MLC (log10 of the value in µM)
Please be aware that the numbers have been log10-transformed from MLC in µM.

Asked: Return log10 of MLC (reported value) for this compound: CCCCCCCC/C=C/CCCCCCCCNc1cc(C)nc2c(Br)cnn12
Given back: 1.30

Asked: Return log10 of MLC (reported value) for this compound: CCCCCCCCNc1cc(C)nc2ccnn12.Cl
Given back: 2.20

Asked: Return log10 of MLC (reported value) for this compound: CCCCCCCCNc1cc(C)nc2ccnn12
Given back: 2.20

Asked: Return log10 of MLC (reported value) for this compound: CCCCCCCCNc1cc(Cl)nc2ccnn12
Given back: 2.51

Asked: Return log10 of MLC (reported value) for this compound: CCCCCCCCNc1ccnc2ccnn12.Cl
Given back: 1.90

Asked: Return log10 of MLC (reported value) for this compound: Cc1cc(NCCCN2CCOCC2)n2nccc2n1.Cl
Given back: 2.51

Asked: Return log10 of MLC (reported value) for this compound: CCCCCCCNc1cc(C)nc2ccnn12
Given back: 2.51

Asked: Return log10 of MLC (reported value) for this compound: CCCCCCNc1cc(C)nc2ccnn12
Given back: 2.51

Asked: Return log10 of MLC (reported value) for this compound: CCCCCCCCSc1cc(C)nc2ccnn12
Given back: 2.20

Asked: Return log10 of MLC (reported value) for this compound: CCCCCCCC/C=C/CCCCCCCCNc1cc(C)nc2ccnn12
Given back: 1.00

Asked: Return log10 of MLC (reported value) for this compound: CCCNc1cc(C)nc2c(Br)cnn12
Given back: 2.51
